# Tested on: DNA repair nuclease/redox regulator APEX1 (Homo sapiens)
# Method notes: qHTS Assay for Inhibitors of the Human Apurinic/apyrimidinic Endonuclease 1 (APE1); note: nearly all actives have a fitted effect of over 55% in size
# Stated conditions: recombinant APE1, TAMRA/BHQ-2 abasic DNA cleavage fluorescence; at 65.8 µM (top of the series) unless noted
About 1,200 (0.34%) of roughly 350,000 compounds were called active. Not shown: some 3% with an inconclusive outcome. Calls come from the whole dose curve; as a rule, active = well fitted inhibition curve with a large enough effect; inconclusive = small, poorly fitted or top-dose-only effect; inactive = no such curve, though single readings can be large or run the other way. The full list was thinned out, with actives kept by preference.
Use one of these outcomes when replying: yes (1) for active, no (0) for inactive

QUERY: Identify the outcome logged in this assay for the compound shown: C=CC1=C2C=C(C3CC3)N(CC(C)C)C=C2C(=O)C(C)(OC(=O)c2ccco2)C1=O (centres undefined)
RESULT: no (0)

QUERY: Identify the outcome logged in this assay for the compound shown: C#CCC(C(=O)OC)(C(=O)OC)C(C[N+](=O)[O-])c1ccccc1 (centres undefined)
RESULT: no (0)

QUERY: Identify the outcome logged in this assay for the compound shown: CCCCS(=O)(=O)N1C2=NC(C(=O)OC)=C(C(=O)OC)[C@@H]3N(Cc4ccccc4)c4ccccc4[C@]23C[C@H]1C(=O)OC
RESULT: no (0)

QUERY: Identify the outcome logged in this assay for the compound shown: CC(C)CN1CCc2nc(-c3ccccc3)c3c(c2C1)COC(C)C3 (centres undefined)
RESULT: no (0)

QUERY: Identify the outcome logged in this assay for the compound shown: COC(=O)C1=C(C(=O)OC)[C@@H]2N(C)c3ccccc3[C@@]23C[C@@H](C(=O)OC)N(S(=O)(=O)c2cccs2)C3=N1
RESULT: no (0)

QUERY: Identify the outcome logged in this assay for the compound shown: COc1ccc(-c2nc3c(c4c2C[C@H](c2ccccc2)OC4)CN(C(=O)c2cccnc2)CC3)c(C)c1
RESULT: no (0)

QUERY: Identify the outcome logged in this assay for the compound shown: C[C@H]1Cc2c(COc3ccccc3)nc3c(c2CO1)CN(C(=O)Nc1cccc(C#N)c1)CC3
RESULT: no (0)

QUERY: Identify the outcome logged in this assay for the compound shown: CC1(OC(=O)c2ccc(Cl)nc2)C(=O)Cc2cc(-c3ccsc3)ncc2C1=O (centres undefined)
RESULT: no (0)

QUERY: Identify the outcome logged in this assay for the compound shown: Cc1cc(C)cc(OCC(=O)NC(C)c2ccccc2)c1 (centres undefined)
RESULT: yes (1)

====

# Tested on: DNA repair nuclease/redox regulator APEX1 (Homo sapiens)
# Method notes: qHTS Assay for Inhibitors of the Human Apurinic/apyrimidinic Endonuclease 1 (APE1); note: nearly all actives have a fitted effect of over 55% in size; note: potency is the fitted concentration of half-maximal effect
# Stated conditions: recombinant APE1, TAMRA/BHQ-2 abasic DNA cleavage fluorescence
Hit rate of the full screen: of about 350,000 compounds, about 1,200 (0.34%) were called active. Inconclusive results (about 3%) are left out. What follows is part of a selection rich in actives, with near analogues and random picks from the rest.
Recorded metric: Potency

See these solved cases before continuing.
CCCCC/C=C\C/C=C\CCCCCCCCCC(=O)NCC(=O)O ... inactive
N#Cc1c(-c2cccs2)nc(SCC(=O)c2ccc(Br)cc2)[nH]c1=O ... 39.8 µM (active)
O=C(c1cc(C(F)(F)F)cc(C(F)(F)F)c1)N1CCC2(CCCN(c3ccccn3)C2)CC1 ... inactive
CC(C)(C)OC(=O)C[C@@H]1C/C=C\C[C@@H](CC(=O)N(CCO)Cc2ccccc2)C(=O)N[C@H](Cc2ccccc2)COC1=O ... inactive

Attention now turns to another entry.
QUERY: GET /values?readout=Potency&system=DNA repair nuclease/redox regulator APEX1 (Homo sapiens)&item= CC(C)CO
RESULT: inactive
